Molecular target: T1, IL-18R1 ECD-His (human)
T1 chain: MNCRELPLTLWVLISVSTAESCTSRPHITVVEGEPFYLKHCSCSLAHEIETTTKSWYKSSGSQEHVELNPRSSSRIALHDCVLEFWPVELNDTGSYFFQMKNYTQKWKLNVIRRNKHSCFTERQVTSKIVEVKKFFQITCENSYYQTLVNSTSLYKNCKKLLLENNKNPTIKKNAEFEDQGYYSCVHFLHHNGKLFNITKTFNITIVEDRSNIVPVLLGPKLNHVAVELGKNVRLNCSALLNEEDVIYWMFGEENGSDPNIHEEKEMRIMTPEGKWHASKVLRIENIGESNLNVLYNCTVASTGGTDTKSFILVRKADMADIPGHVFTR
Assay: BLI
pKd: −log10 of the molar value.
EXPERIMENTAL_ENDPOINT: pKd

Sample records with pKd:
{"BINDER": "hzR1-C7-hFc (antibody, V domains shown) VH: EVQLVESGGGLVQPGGSLRLSCAASGNLYRDPCMGWFRQAPGKDREGVAAMNTGADSTFYARSVKGRFTISRDNAKNTLYLQMNSLRAEDTAVYYCAASRYCTERTYTWRYDYDYWGQGTLVTVSS", "VALUE_REPORTED": 8.60}
{"BINDER": "R1-F9-hFc (antibody, V domains shown) VH: QVQLQESGGGSVQAGETLRLSCTASGFTVHDMGWYRQAPGNECELVSTISSDGSTYYADSVKGRFTISQDNAKNTVYLQMNSLKPEDTAVYYCAADHFTGLQLAECKADFGYWGQGTQVTVSS", "VALUE_REPORTED": 8.96}
{"BINDER": "hzR1-F9-hFc (antibody, V domains shown) VH: EVQLVESGGGLVQPGGSLRLSCAASGFTVHDMGWYRQAPGKECELVSTISSDASTYYADSVKGRFTISRDNAKNTLYLQMNSLRAEDTAVYYCAADSFTGLQLAECKADFGYWGQGTLVTVSS", "VALUE_REPORTED": 8.43}
{"BINDER": "hzR1-A12-hFc (antibody, V domains shown) VH: EVQLVESGGGLVQPGGSLRLSCAASGTAYDNACMGWFRQAPGKEREGVASIHLRDRTYYADSVKGRFTISRDNSKNTLYLQMNSLRAEDTAVYYCASSNICNALNLQGNTYWGQGTLVTVSS", "VALUE_REPORTED": 8.70}
{"BINDER": "R1-A12-hFc (antibody, V domains shown) VH: QVQLQESGGGPVQAGGSLRLSCSASTTAYDNACMGWFRQAPGKEREGVASIHLRDRTYYADSVKGRFTLSRDGASKTLYLQMNSLKPEDSGTYYCASSNICNGLNLQGNTYWGQGTQVTVSS", "VALUE_REPORTED": 8.55}

[P] R1-C7-hFc (antibody, V domains shown) VH: QVQLQESGGGPVQAEGSLRLSCTASGNLYRDPCMGWFRQAPGKDREGVAAMNTGADSTFYARSVKGRFTISHDNAKNTLYLQMNSVKPEDTAMYYCAASRYCTERTWTWRYDYDYWGQGTQVTVSS
[Q] hzR1-C10-hFc (antibody, V domains shown) VH: EVQLVESGGGLVQPGGSLRLSCAASGSTFDEYDMGWYRQAPGGKCELVSTISTIDASTYYADSVKGRFTISRDNSKNTLYLQMNSLRAEDTAVYYCEADDRGTWDRGGCWGQGTLVTVSS
[R] R1-C10-hFc (antibody, V domains shown) VH: QVQLQESGGGSVQAGETLRLSCTASGSTFDEYDMGWYRQAPGNKCELVSTISTIDGSTYYADSVKGRFTISQDNTKNTVYLQMNSLKPEDTGVYYCEADDRGTWDRGGCWGQGTQVTVSS
Your job: order these 3 records by pKd, ascending. Provide your answer as the labels ordered per the instruction.
P, Q, R
(P: 8.59, Q: 8.84, R: 10.55)
